System: NCI-H322M lung
Experiment: NCI-60 one-dose screen, 48 h (100 = growth as untreated, 0 = no growth, -100 = all killed)
Details: 10 µM unless noted
This is part of a sample that, as a whole, favours compounds with a hit. Of some 83,000 tested, about 20% had one in any assay. Active and inactive are the calls of the source. Rule for the calls: active = growth percent below 10; inactive = the rest.
RECORDED ENDPOINT: growth

Field: example entries. Status: answers known.
- COMPOUND: "COc1cc2c3c(n(CCCN4CCCCC4)c(=O)c2cc1OC)-c1cc2c(cc1C3=O)OCO2"
  SYSTEM UNDER TEST: "NCI-H322M lung"
  growth: "-96.4% (active)"
- COMPOUND: "CS(=O)(=O)c1ccc2c(c1)c1c(n2Cc2ccc(Cl)cc2)CCCC1"
  SYSTEM UNDER TEST: "NCI-H322M lung"
  growth: "87.7% (inactive)"
- COMPOUND: "Cn1c2ccc(Br)cc2c2c3c(c4c5cc(F)ccc5oc4c21)C(=O)N(O)C3=O"
  SYSTEM UNDER TEST: "NCI-H322M lung"
  growth: "103% (inactive)"
- COMPOUND: "O=C(N/N=C\\c1ccc(Cl)cc1)c1ccc2nc(-c3ccc(Br)cc3)[nH]c2c1"
  SYSTEM UNDER TEST: "NCI-H322M lung"
  growth: "41.3% (inactive)"
- COMPOUND: "CN(C)CCn1c2ccc(N)cc2c2nc3ccccc3nc21"
  SYSTEM UNDER TEST: "NCI-H322M lung"
  growth: "34.7% (inactive)"

Go through the list and state growth for each entry.
1. CCN(CC)CCN1C(=O)c2c(c3c4cccnc4[nH]c3c3ccc4ccccc4c23)C1=O
2. Oc1ccccc1/C=N/Nc1nc(N/N=C/c2ccccc2O)nc(N2CCOCC2)n1
3. CC(C)=CCc1c(O)c(CC=C(C)C)c2c(c1O)C(=O)C1=C[C@@H]3C[C@H]4C(C)(C)O[C@@](C/C=C(\C)C(=O)O)(C3=O)[C@@]14O2
4. CCOc1ccc2nc(NC(=O)Nc3ccccc3C)sc2c1
5. O=C(CSc1nnc(-c2ccc(Cl)cc2)n1-c1ccccc1)Nc1ccc(F)cc1
6. O=C(Nc1ccccc1)Nc1nc2ccc([N+](=O)[O-])cc2s1
7. C/C(=C(/c1ccc(O)cc1)c1ccc(OCCN2CCCC2)cc1)c1ccc(Cl)cc1
8. CCCC(=O)NC(c1cccnc1)c1cc(Cl)c2cccnc2c1O (stereo not given)

Response given:
["76.7% (inactive)", "44.5% (inactive)", "21.7% (inactive)", "87% (inactive)", "80.3% (inactive)", "10% (inactive)", "53.8% (inactive)", "47.1% (inactive)"]
